target: Nav1.7 (or SCN9A) channel (Homo sapiens); construct: expressed in transfected cells; assay: Nav1.7 (hSCN9A) electrophysiology assay, PatchXpress platform; type: cell-based; details: estimated IC50 from single point electrophysiology data, HEK cells stably expressing hSCN9A, held at V1/2 of inactivation, read-out: Nav1.7 EIC50
Sequence (Q15858 whole entry): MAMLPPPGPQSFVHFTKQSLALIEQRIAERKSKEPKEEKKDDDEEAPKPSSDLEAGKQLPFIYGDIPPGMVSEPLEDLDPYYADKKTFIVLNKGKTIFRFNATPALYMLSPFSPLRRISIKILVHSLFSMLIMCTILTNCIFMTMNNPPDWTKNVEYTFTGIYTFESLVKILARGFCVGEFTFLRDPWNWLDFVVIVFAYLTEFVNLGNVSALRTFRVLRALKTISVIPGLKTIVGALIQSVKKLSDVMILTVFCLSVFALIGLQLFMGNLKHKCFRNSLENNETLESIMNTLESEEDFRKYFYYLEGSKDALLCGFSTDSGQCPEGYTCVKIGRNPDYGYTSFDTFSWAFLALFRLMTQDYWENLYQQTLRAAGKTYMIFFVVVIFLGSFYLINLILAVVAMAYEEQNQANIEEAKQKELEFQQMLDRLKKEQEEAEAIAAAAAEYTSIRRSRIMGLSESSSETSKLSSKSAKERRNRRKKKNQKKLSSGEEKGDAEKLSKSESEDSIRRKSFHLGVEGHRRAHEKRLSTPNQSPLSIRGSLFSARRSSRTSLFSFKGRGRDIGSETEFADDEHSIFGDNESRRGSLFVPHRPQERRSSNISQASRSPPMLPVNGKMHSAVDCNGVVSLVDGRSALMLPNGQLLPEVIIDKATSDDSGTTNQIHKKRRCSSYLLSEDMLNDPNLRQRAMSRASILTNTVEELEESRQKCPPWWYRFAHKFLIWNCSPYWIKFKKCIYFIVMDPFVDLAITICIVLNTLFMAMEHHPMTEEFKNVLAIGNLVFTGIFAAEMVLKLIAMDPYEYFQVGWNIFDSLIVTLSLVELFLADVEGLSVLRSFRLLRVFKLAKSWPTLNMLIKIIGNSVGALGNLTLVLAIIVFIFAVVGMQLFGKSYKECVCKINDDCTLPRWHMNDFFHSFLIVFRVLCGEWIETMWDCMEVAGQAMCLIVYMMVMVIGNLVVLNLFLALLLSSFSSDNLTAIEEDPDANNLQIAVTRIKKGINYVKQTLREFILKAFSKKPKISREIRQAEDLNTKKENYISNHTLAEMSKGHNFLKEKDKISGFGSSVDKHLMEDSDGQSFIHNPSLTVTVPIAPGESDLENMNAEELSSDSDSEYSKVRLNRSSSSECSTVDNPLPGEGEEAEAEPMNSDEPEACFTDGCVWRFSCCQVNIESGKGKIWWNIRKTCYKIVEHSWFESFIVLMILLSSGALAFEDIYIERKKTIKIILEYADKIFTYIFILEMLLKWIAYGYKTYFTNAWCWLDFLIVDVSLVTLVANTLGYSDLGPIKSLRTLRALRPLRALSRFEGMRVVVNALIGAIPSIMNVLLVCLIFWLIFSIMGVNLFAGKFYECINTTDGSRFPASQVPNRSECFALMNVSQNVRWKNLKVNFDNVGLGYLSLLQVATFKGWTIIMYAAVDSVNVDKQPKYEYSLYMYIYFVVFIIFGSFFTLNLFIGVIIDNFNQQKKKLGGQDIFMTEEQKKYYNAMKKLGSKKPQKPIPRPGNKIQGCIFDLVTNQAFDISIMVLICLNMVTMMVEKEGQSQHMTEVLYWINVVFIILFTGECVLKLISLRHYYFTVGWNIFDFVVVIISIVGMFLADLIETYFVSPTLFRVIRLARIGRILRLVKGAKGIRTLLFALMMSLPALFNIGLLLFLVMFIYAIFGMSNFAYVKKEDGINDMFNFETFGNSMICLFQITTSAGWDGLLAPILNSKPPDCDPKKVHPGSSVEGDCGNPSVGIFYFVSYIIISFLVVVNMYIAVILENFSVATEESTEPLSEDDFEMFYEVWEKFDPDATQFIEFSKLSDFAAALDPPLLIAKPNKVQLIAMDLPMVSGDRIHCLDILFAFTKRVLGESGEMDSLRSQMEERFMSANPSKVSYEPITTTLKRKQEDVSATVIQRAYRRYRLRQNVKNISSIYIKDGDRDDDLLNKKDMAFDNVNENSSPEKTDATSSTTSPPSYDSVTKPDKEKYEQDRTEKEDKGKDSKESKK
measured-property: IC50 (nM)
# unit: nM | format: bare number

molecule: COc1cc(Cl)cc(OCc2cc(F)c(C(=O)NS(C)(=O)=O)cc2F)c1
IC50 / nM: 140

Short answer for Cc1cc(C)cc(OCc2cc(F)c(C(=O)NS(C)(=O)=O)cc2F)c1 : IC50 was 380

What the record says about CS(=O)(=O)NC(=O)c1cc(Cl)c(COc2ccc(OC(F)(F)F)c(Cl)c2)cc1F : IC50 is 29

Value of measured IC50 for the entry CS(=O)(=O)NC(=O)c1cc(F)c(OCc2cccc3ccccc23)cc1F : 1700
